molecular target: Cdk9/cyclinT1 (Homo sapiens (Human), UniProt P50750); experiment: Cdk9/CyclinT1 IMAP Protocol (fluorescence polarization kinase assay); details: Table 2; generated using one of the two Cdk9/cyclinT1 assays (IMAP or Alpha Screen), not specified which; unit inferred
Sequence (P50750 whole entry): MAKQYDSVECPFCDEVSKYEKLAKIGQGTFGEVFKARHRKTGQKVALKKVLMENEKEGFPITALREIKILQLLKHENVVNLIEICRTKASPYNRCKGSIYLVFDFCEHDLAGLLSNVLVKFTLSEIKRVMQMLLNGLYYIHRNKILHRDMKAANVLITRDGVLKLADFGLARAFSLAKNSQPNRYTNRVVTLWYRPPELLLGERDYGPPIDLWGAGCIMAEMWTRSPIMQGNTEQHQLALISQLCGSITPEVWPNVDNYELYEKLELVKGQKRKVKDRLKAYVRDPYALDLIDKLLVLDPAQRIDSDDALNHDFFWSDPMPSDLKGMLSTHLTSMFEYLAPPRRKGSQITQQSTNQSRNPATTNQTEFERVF
Sequence (O60563 whole entry partner): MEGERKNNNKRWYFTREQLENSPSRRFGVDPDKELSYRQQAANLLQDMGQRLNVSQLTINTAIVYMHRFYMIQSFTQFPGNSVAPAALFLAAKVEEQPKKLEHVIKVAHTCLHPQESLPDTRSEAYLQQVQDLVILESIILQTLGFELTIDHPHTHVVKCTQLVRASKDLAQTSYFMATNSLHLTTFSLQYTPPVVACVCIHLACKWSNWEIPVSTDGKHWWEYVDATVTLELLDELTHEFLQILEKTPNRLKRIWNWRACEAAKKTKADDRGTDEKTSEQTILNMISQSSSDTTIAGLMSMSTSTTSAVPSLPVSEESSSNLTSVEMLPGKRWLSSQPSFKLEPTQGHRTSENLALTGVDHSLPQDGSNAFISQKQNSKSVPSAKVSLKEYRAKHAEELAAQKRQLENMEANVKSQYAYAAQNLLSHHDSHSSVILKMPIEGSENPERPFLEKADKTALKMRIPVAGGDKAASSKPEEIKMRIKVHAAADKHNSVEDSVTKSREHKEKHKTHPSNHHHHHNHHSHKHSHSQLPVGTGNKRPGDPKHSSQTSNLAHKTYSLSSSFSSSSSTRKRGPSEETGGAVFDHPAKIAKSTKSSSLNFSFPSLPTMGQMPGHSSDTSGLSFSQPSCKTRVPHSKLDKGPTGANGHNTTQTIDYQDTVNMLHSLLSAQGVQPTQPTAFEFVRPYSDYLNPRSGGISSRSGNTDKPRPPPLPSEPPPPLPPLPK
metric name: IC50 (µM)
Respond with the bare value in µM.

**Query** Entry under review: "CN(C)[C@H]1CC[C@H](Nc2cc(-c3cccc(NCC4(C#N)CCOCC4)n3)c(Cl)cn2)CC1" . Reported IC50?
**Result** 0.0003

**Query** Entry under review: "O[C@H]1CC[C@H](Nc2cc(-c3cccc(NCC4CCOCC4)n3)c(Cl)cn2)CC1" . Reported IC50?
**Result** 0.0333

**Query** Entry under review: "NCCCCNc1cc(-c2cccc(NCc3cc(F)cc(F)c3)n2)c(Cl)cn1" . Reported IC50?
**Result** 0.00794

**Query** Entry under review: "N[C@H]1CC[C@H](Nc2cc(-c3cccc(NCc4ccc(C(F)(F)F)cc4)n3)c(Cl)cn2)CC1" . Reported IC50?
**Result** 0.0192

**Query** Entry under review: NCC(O)CNc1cc(-c2cccc(NCc3cccc(F)c3)n2)c(Cl)cn1 (stereo not shown) . Reported IC50?
**Result** 0.0356

**Query** Entry under review: "COCCN(C)[C@H]1CC[C@H](Nc2cc(-c3nc(NCC4CCOCC4)ccc3Cl)c(Cl)cn2)CC1" . Reported IC50?
**Result** 0.00794

**Query** Entry under review: "N[C@H]1CC[C@H](Nc2cc(-c3cccc(NCc4ccc(OC(F)F)cc4)n3)c(Cl)cn2)CC1" . Reported IC50?
**Result** 0.0111

**Query** Entry under review: "CN1CCC[C@H]1C(=O)N1CCC(Nc2cc(-c3cccc(NCc4cccc(F)c4)n3)c(Cl)cn2)CC1" . Reported IC50?
**Result** 0.0815

**Query** Entry under review: "COCCN[C@H]1CC[C@H](Nc2cc(-c3ccc(F)c(NCC4(C#N)CCOCC4)n3)c(Cl)cn2)CC1" . Reported IC50?
**Result** 0.00017

**Query** Entry under review: "COCCN[C@H]1CC[C@H](Nc2cc(-c3cccc(NCc4cc(F)cc(F)c4)n3)c(Cl)cn2)CC1" . Reported IC50?
**Result** 0.00794

**Query** Entry under review: "Clc1cnc(NC[C@@H]2CCCNC2)cc1-c1cccc(NCC2CCOCC2)n1" . Reported IC50?
**Result** 0.219

**Query** Entry under review: "CCN[C@H]1CC[C@H](Nc2cc(-c3cccc(NCc4cccc(F)c4)n3)c(Cl)cn2)CC1" . Reported IC50?
**Result** 0.011

**Query** Entry under review: "COC[C@@H](C)N[C@H]1CC[C@H](Nc2cc(-c3ccc(F)c(NCC(CO)CO)n3)c(Cl)cn2)CC1" . Reported IC50?
**Result** 0.0031

**Query** Entry under review: "Fc1cccc(CNc2cccc(-c3cc(NCC[C@H]4CCCNC4)ncc3Cl)n2)c1" . Reported IC50?
**Result** 0.0079

**Query** Entry under review: "O[C@H]1CC[C@H](Nc2cc(-c3cccc(NC[C@H]4CCCNC4)n3)c(Cl)cn2)CC1" . Reported IC50?
**Result** 10.5

**Query** Entry under review: "COCCN(C)[C@H]1CC[C@H](Nc2cc(-c3cccc(NCC4CCOCC4)n3)c(Cl)cn2)CC1" . Reported IC50?
**Result** 0.0131

* * *

target: Cdk9/cyclinT1 (Homo sapiens (Human)); assay: Cdk9/CyclinT1 IMAP Protocol (fluorescence polarization kinase assay); conditions: Table 2; generated using one of the two Cdk9/cyclinT1 assays (IMAP or Alpha Screen), not specified which; unit inferred
Category key, based on recorded IC50: lower: < 8 nM; middle: ≥ 8 nM and < 20 nM; upper: ≥ 20 nM

**Query** Class? Entry: "Fc1cncc(CNc2cccc(-c3cc(NC4CCNCC4)ncc3Cl)n2)c1"
**Result** upper

**Query** Class? Entry: "CN(CC1CCOCC1)c1cncc(-c2cc(N[C@H]3CC[C@H](O)CC3)ncc2Cl)n1"
**Result** upper

**Query** Class? Entry: COC[C@@H](C)N[C@H]1CC[C@H](Nc2cc(-c3cccc(NCC4(C#N)CCOCC4)n3)c(Cl)cn2)CC1 [Compound 358]
**Result** lower

**Query** Class? Entry: "N[C@H]1CC[C@H](Nc2cc(-c3cccc(N[C@@H]4CC45CCOCC5)n3)c(Cl)cn2)CC1"
**Result** upper

**Query** Class? Entry: "CC1(CN[C@H]2CC[C@H](Nc3cc(-c4ccc(F)c(NCC5CCOCC5)n4)c(Cl)cn3)CC2)OCCO1"
**Result** lower

**Query** Class? Entry: "CN(CC1CCOCC1)c1cncc(-c2cc(N[C@H]3CC[C@H](N)CC3)ncc2Cl)n1"
**Result** middle

**Query** Class? Entry: "NC[C@H]1CC[C@H](Nc2cc(-c3cncc(NCC4CCOCC4)n3)c(Cl)cn2)CC1"
**Result** middle

**Query** Class? Entry: "Clc1ccc(NCC2CCOCC2)nc1-c1ccnc(N[C@H]2CC[C@H](NC[C@H]3CCCO3)CC2)c1"
**Result** upper

**Query** Class? Entry: "CC1(C)OC[C@@H](CN[C@H]2CC[C@H](Nc3cc(-c4nc(NCC5CCOCC5)ccc4Cl)c(Cl)cn3)CC2)O1"
**Result** lower

**Query** Class? Entry: "NC[C@H]1CC[C@H](Nc2cc(-c3cccc(NCc4cncc(F)c4)n3)c(Cl)cn2)CC1"
**Result** middle

**Query** Class? Entry: "Fc1cccc(CNc2cccc(-c3cc(NC4CCCCC4)ncc3Cl)n2)c1"
**Result** upper

**Query** Class? Entry: "O[C@H]1CC[C@H](Nc2cc(-c3cccc(NCc4cccnc4)n3)c(Cl)cn2)CC1"
**Result** upper

* * *

biological target: Cdk9/cyclinT1 (Homo sapiens (Human), UniProt P50750); test: Cdk9/CyclinT1 IMAP Protocol (fluorescence polarization kinase assay); details: Table 2; generated using one of the two Cdk9/cyclinT1 assays (IMAP or Alpha Screen), not specified which; unit inferred
pIC50: −log10 of the molar value.
pIC50 of 8 or higher: YES. Under 8: NO.

**Query** Test whether the compound "N[C@H]1CC[C@H](Nc2cc(-c3nc(NCC4CCOCC4)c(F)cc3F)c(Cl)cn2)CC1" records pIC50 of 8 or higher.
**Result** YES

**Query** Test whether the compound "O=S1(=O)CCC(N[C@H]2CC[C@H](Nc3cc(-c4nc(NCC5CCOCC5)ccc4Cl)c(Cl)cn3)CC2)CC1" records pIC50 of 8 or higher.
**Result** YES

**Query** Test whether the compound "Fc1cccc(CNc2cncc(-c3ccnc(N[C@H]4CC[C@H](NCc5ccccc5)CC4)c3)n2)c1" records pIC50 of 8 or higher.
**Result** NO

**Query** Test whether the compound "COC[C@@H](C)N[C@H]1CC[C@H](Nc2cc(-c3cccc(NCC4(OC)CCOCC4)n3)c(Cl)cn2)CC1" records pIC50 of 8 or higher.
**Result** YES

**Query** Test whether the compound "Fc1cccc(CNc2cccc(-c3cc(NC4CCOCC4)ncc3Cl)n2)c1" records pIC50 of 8 or higher.
**Result** NO

**Query** Test whether the compound O[C@H]1CC[C@H](Nc2cc(-c3cccc(NCC4COCCO4)n3)c(Cl)cn2)CC1 (stereo partly shown) records pIC50 of 8 or higher.
**Result** NO

**Query** Test whether the compound "COC[C@@H](C)N[C@H]1CC[C@H](Nc2cc(-c3cccc(NCC4(CO)CCOCC4)n3)c(Cl)cn2)CC1" records pIC50 of 8 or higher.
**Result** YES

**Query** Test whether the compound "O[C@H]1CC[C@H](Nc2cc(-c3cccc(NC[C@@H]4CCCNC4)n3)c(Cl)cn2)CC1" records pIC50 of 8 or higher.
**Result** NO

**Query** Test whether the compound "CN1CCN(CCNc2cc(-c3cccc(NCc4cccc(F)c4)n3)c(Cl)cn2)CC1" records pIC50 of 8 or higher.
**Result** NO

**Query** Test whether the compound "Fc1ccc(-c2cc(N[C@H]3CC[C@H](NC4COC4)CC3)ncc2Cl)nc1NCC1CCOCC1" records pIC50 of 8 or higher.
**Result** NO

**Query** Test whether the compound COCCN[C@H]1CC[C@H](Nc2cc(-c3cccc(NCC4C[C@@H](C)O[C@@H](C)C4)n3)c(Cl)cn2)CC1 (stereo partly shown) records pIC50 of 8 or higher.
**Result** YES

**Query** Test whether the compound "CNc1cc(-c2cccc(NCc3cccc(F)c3)n2)c(Cl)cn1" records pIC50 of 8 or higher.
**Result** NO

**Query** Test whether the compound "CN1CCC(Nc2cc(-c3cccc(NCc4cccc(F)c4)n3)c(Cl)cn2)CC1" records pIC50 of 8 or higher.
**Result** NO

**Query** Test whether the compound "N[C@H]1CC[C@H](Nc2ncc(Cl)c(-c3cccc(NCc4ccncc4)n3)n2)CC1" records pIC50 of 8 or higher.
**Result** NO

**Query** Test whether the compound "Fc1ccc(CNc2cccc(-c3cc(N[C@H]4CCCNC4)ncc3Cl)n2)cc1F" records pIC50 of 8 or higher.
**Result** NO

**Query** Test whether the compound "CCS(=O)(=O)N[C@H]1CC[C@H](Nc2cc(-c3cccc(NCc4cccc(F)c4)n3)c(Cl)cn2)CC1" records pIC50 of 8 or higher.
**Result** NO

**Query** Test whether the compound "Fc1cccc(CNc2cccc(-c3cc(N[C@@H]4CCCOC4)ncc3Cl)n2)c1" records pIC50 of 8 or higher.
**Result** NO

**Query** Test whether the compound CC1(C)CC(CNc2ccc(Cl)c(-c3cc(N[C@H]4CC[C@H](NC[C@H](O)C(F)(F)F)CC4)ncc3Cl)n2)CCO1 (stereo partly shown) records pIC50 of 8 or higher.
**Result** YES
